All values here come from patent US20200262898A1.

Would you mind telling me the reported S:B Expression of each entry?
# assayTarget: Fc-binding protein (the ZZ domain of ProA)
# protocolSummary: flow cytometry on cells expressing the Fc-binding ZZ domain on their surface; given as a measure of expression

Query :: Provide one value: measured S:B Expression of Antibody of common light chain F10 (F10chicken) paired with the heavy chain against CD63 (antibody, V domains shown) VH: AVTLDESGGGLQTPGGALSLVCKASGFTFSDRGMHWVRQAPGKGLEWVAGIRSTGSFTLYGAAVKGRATISRDDGQSTLRLQLNNLRAEDTGTYYCAKSAGGYGCGRGWCGVDDIDAWGHGTEVIVSS VL: ALTQPSSVSANPGETVKITCSGGYNGHYGWYQQKSPGSAPVTVIYSNNQRPSNIPSRFSGSTSGSTSTLTITGVRAEDEAVYFCGGYDSSAGIFGAGTTLTVL
Result :: 15.5 S:B

Query :: Provide one value: measured S:B Expression of Antibody of common light chain F10 (F10chicken) paired with the heavy chain against IGSF8 (antibody, V domains shown) VH: AVTLDESGGGLQTPGGGLSLVCKASGFSISSYEMQWVRQAPGKGLEWVAGIDDDGSSRAYAPAVKGRATISRDNGQSTVRLQLNNLRAEDTGTYYCAKTIYAATLNAGEIDAWGHGTEVIVSS VL: ALTQPSSVSANPGETVKITCSGGYNGHYGWYQQKSPGSAPVTVIYSNNQRPSNIPSRFSGSTSGSTSTLTITGVRAEDEAVYFCGGYDSSAGIFGAGTTLTVL
Result :: 11.9 S:B

Query :: Provide one value: measured S:B Expression of Antibody of common light chain F10 (F10chicken) paired with the heavy chain against CD151 (antibody, V domains shown) VH: AVTLDESGGGLQMPGGALSLVCKASGFTFSSYGMEWVRQAPGKGLEWVAGISSGGGSTDYGTAVKGRATISRDNGQSTVRLQLNNLRAEDTGTYFCAKSAYGGTWDGDDIDAWGHGTEVIVSS VL: ALTQPSSVSANPGETVKITCSGGYNGHYGWYQQKSPGSAPVTVIYSNNQRPSNIPSRFSGSTSGSTSTLTITGVRAEDEAVYFCGGYDSSAGIFGAGTTLTVL
Result :: 13.7 S:B
